Several reports have described pIC50 for Acyl-CoA: Cholesterol Acyltransferase (ACAT) (Rattus norvegicus); a selection of those results is presented here.
FYI, pIC50 means -log10 of a concentration in mol per litre.

Solved cases (4 shown):
{"molecule": "CC(C)c1cc(C(C)C)c(CC(=O)NS(=O)(=O)Oc2c(C(C)C)cc(NC(=O)C(N)Cc3c[nH]c4ccccc34)cc2C(C)C)c(C(C)C)c1 (centres unmarked)", "assay system": "Acyl-CoA: Cholesterol Acyltransferase (ACAT) (Rattus norvegicus)", "observed result": 4.62}
{"molecule": "CCCCCCCN(CCCCCSc1nc(-c2ccccc2)c(-c2ccccc2)[nH]1)C(=N)Nc1ccccc1", "assay system": "Acyl-CoA: Cholesterol Acyltransferase (ACAT) (Rattus norvegicus)", "observed result": 5.50}
{"molecule": "CCCN(CCCCC(=O)Nc1c(SC)nc(C)nc1N(CC)CC)c1ccccc1", "assay system": "Acyl-CoA: Cholesterol Acyltransferase (ACAT) (Rattus norvegicus)", "observed result": 7.19}
{"molecule": "CCCCCCCN(CCCCCSc1nc(-c2ccccc2)c(-c2ccccc2)[nH]1)C(=S)Nc1ccc(F)cc1F", "assay system": "Acyl-CoA: Cholesterol Acyltransferase (ACAT) (Rattus norvegicus)", "observed result": 7.24}

The molecule listed as CC(CCc1ccccc1)COC(=O)CS(=O)(=O)Nc1c(C(C)C)cccc1C(C)C (centres unmarked) has a reported pIC50 of 5.38

The molecule listed as "CCCN(CCCCCC(=O)Nc1c(S)nc(C)nc1N(CCC)c1ccccc1)c1ccccc1" has a reported pIC50 of 6.55

The molecule listed as CCCCCCCC/C=C\CCCCCCCC(=O)N1Cc2cc(OC)c(OC)cc2C(c2ccccc2)C1 (centres unmarked) has a reported pIC50 of 5.62

The molecule listed as "CCCCCCCCCCCCn1nnc(C(=NN)C(=O)Nc2c(C(C)C)cccc2C(C)C)n1" has a reported pIC50 of 6.29

The molecule listed as O=C(NC(CN1CCC(O)CC1)c1ccccc1)C(c1ccccc1)c1ccccc1 (centres unmarked) has a reported pIC50 of 5.52

The molecule listed as CN1CCN(CC(NC(=O)C(c2ccccc2)c2ccccc2)c2ccccc2)CC1 (centres unmarked) has a reported pIC50 of 5.35

The molecule listed as "Cc1cccc(C(C)C)c1NC(=O)Nc1c(-c2ccccc2Cl)c2cc(Cl)ccc2n(C)c1=O" has a reported pIC50 of 7.80

The molecule listed as O=C(NC(CN1CCC(=NO)CC1)c1ccccc1)C(c1ccccc1)c1ccccc1 (centres unmarked) has a reported pIC50 of 6.40

The molecule listed as "COc1cc(OC)c(NC(=O)CS(=O)(=O)Nc2c(OC)cc(OC)cc2OC)c(OC)c1" has a reported pIC50 of 5.12

The molecule listed as "CCCCCCN(CCCC(=O)Nc1c(SC)nc(C)nc1N(CC)CC)c1ccc(Br)cc1" has a reported pIC50 of 7.43

The molecule listed as CCCCCCCCCCCCn1nnc(C(NC2CCCCC2)C(=O)Nc2c(C(C)C)cccc2C(C)C)n1 (racemic) has a reported pIC50 of 6.67

The molecule listed as "CCCCCCCN(CCCC(=O)Nc1c(SC)nc(C)nc1N(CC)CC)Cc1ccccc1" has a reported pIC50 of 7.02

The molecule listed as CCCCCCCCCCCCn1nnc(C(C(=O)Nc2c(C(C)C)cccc2C(C)C)N2CCCC2)n1 (racemic) has a reported pIC50 of 8.05

The molecule listed as CCCCCCCC/C=C\CCCCCCCC(=O)NCCCNC(=O)CCNC(=O)C1OC(C)(C)OCC1(C)C (centres unmarked) has a reported pIC50 of 6.41

The molecule listed as "CCCCCCCN(CCOC(=O)CSc1nc(-c2ccc(OC)cc2)c(-c2ccc(OC)cc2)[nH]1)C(=O)Nc1ccc(F)cc1F" has a reported pIC50 of 5.59
